Source listed as ChEMBL document CHEMBL2401725.

# reported IC50; entries follow
Test system: HeLa
measurement protocol: Cytotoxicity against human HeLa cells by MTT assay
Format: functional, cell-based
Numeric only. Scale: µM

State measured IC50 of the compound COc1cccc2c1C(=O)c1c(O)c3c(c(O)c1C2=O)C[C@@](O)(C(=O)CO)C[C@@H]3O[C@H]1C[C@H](N)[C@H](O)[C@H](C)O1 with HeLa.
0.451

Continue with the next compound.
State measured IC50 of the compound Cc1oc2c3c(ccc2c(=O)c1C)OC[C@H]1[C@@H]3N(Cc2ccc(F)cc2)OC1(C)C with HeLa.
9.54

====

System: MCF7
measurement protocol: Cytotoxicity against human MCF7 cells by MTT assay
Assay type: functional, cell-based
experimental endpoint: IC50 (µM)
Numeric only. Scale: µM

State measured IC50 of the compound Cc1oc2c3c(ccc2c(=O)c1C)OC[C@H]1[C@@H]3N(Cc2ccc(C(C)C)cc2)OC1(C)C with MCF7.
7.96

State measured IC50 of the compound COc1ccc(CN2OC(C)(C)[C@H]3COc4ccc5c(=O)c(C)c(C)oc5c4[C@H]32)cc1 with MCF7.
5.59

State measured IC50 of the compound Cc1coc2c3c(ccc2c1=O)OC[C@H]1[C@@H]3N(C2CCCCC2)OC1(C)C with MCF7.
22.7

State measured IC50 of the compound COc1ccc(CN2OC(C)(C)[C@H]3COc4ccc5c(=O)c(C)coc5c4[C@H]32)cc1 with MCF7.
7.38

State measured IC50 of the compound Cc1ccc(CN2OC(C)(C)[C@H]3COc4ccc5c(=O)c(C)coc5c4[C@H]32)cc1 with MCF7.
5.3

====

Test system: HeLa
measurement protocol: Cytotoxicity against human HeLa cells by MTT assay
Format: functional, cell-based
experimental endpoint: pIC50
// returns pIC50 (minus log10 of molar concentration), number only

Guide cases for pIC50, answers given:
State measured pIC50 of the compound COc1ccc(CN2OC(C)(C)[C@H]3COc4ccc5c(=O)c(C)coc5c4[C@H]32)cc1 with HeLa.
5.18

State measured pIC50 of the compound Cc1coc2c3c(ccc2c1=O)OC[C@H]1[C@@H]3N(Cc2ccccc2)OC1(C)C with HeLa.
5.18

State measured pIC50 of the compound Cc1ccc(CN2OC(C)(C)[C@H]3COc4ccc5c(=O)c(C)c(C)oc5c4[C@H]32)cc1 with HeLa.
4.74

Continuing:
State measured pIC50 of the compound Cc1coc2c3c(ccc2c1=O)OC[C@H]1[C@@H]3N(C2CCCCC2)OC1(C)C with HeLa.
4.76

====

Tested on: A549
measurement protocol: Cytotoxicity against human A549 cells by MTT assay
Format: functional, cell-based
experimental endpoint: IC50 (µM)
Numeric only. Scale: µM

Please report the measured IC50 for Cc1ccc(CN2OC(C)(C)[C@H]3COc4ccc5c(=O)c(C)c(C)oc5c4[C@H]32)cc1
8.92

Please report the measured IC50 for Cc1oc2c3c(ccc2c(=O)c1C)OC[C@H]1[C@@H]3N(Cc2ccc(F)cc2)OC1(C)C
12.8

Please report the measured IC50 for COc1cccc2c1C(=O)c1c(O)c3c(c(O)c1C2=O)C[C@@](O)(C(=O)CO)C[C@@H]3O[C@H]1C[C@H](N)[C@H](O)[C@H](C)O1 [DOXORUBICIN]
1.21

Please report the measured IC50 for Cc1oc2c3c(ccc2c(=O)c1C)OC[C@H]1[C@@H]3N(C2CCCCC2)OC1(C)C
8.96

Please report the measured IC50 for COc1ccc(CN2OC(C)(C)[C@H]3COc4ccc5c(=O)c(C)c(C)oc5c4[C@H]32)cc1
11.2

Please report the measured IC50 for COc1ccc(CN2OC(C)(C)[C@H]3COc4ccc5c(=O)c(C)coc5c4[C@H]32)cc1
29.4

Please report the measured IC50 for Cc1coc2c3c(ccc2c1=O)OC[C@H]1[C@@H]3N(C2CCCCC2)OC1(C)C
0.194

Please report the measured IC50 for Cc1oc2c3c(ccc2c(=O)c1C)OC[C@H]1[C@@H]3N(Cc2ccccc2)OC1(C)C
17.9
